- Target Or System: Glutamate receptor 1 (Homo sapiens)
- Format: cell-based, Oocyte
Reported Endpoint: IC50 (nM)
Respond with the bare value in nM.

For N=C(N)NCCC[C@H](N)C(=O)NCCCNCCCNCCCCCNC(=O)[C@H](CC(N)=O)NC(=O)Cc1ccc(O)cc1O , what is its reported IC50?
350

----------
- Target Or System: Glutamate receptor 1 (Rattus norvegicus, UniProt P19490)
- Sequence (P19490 whole entry): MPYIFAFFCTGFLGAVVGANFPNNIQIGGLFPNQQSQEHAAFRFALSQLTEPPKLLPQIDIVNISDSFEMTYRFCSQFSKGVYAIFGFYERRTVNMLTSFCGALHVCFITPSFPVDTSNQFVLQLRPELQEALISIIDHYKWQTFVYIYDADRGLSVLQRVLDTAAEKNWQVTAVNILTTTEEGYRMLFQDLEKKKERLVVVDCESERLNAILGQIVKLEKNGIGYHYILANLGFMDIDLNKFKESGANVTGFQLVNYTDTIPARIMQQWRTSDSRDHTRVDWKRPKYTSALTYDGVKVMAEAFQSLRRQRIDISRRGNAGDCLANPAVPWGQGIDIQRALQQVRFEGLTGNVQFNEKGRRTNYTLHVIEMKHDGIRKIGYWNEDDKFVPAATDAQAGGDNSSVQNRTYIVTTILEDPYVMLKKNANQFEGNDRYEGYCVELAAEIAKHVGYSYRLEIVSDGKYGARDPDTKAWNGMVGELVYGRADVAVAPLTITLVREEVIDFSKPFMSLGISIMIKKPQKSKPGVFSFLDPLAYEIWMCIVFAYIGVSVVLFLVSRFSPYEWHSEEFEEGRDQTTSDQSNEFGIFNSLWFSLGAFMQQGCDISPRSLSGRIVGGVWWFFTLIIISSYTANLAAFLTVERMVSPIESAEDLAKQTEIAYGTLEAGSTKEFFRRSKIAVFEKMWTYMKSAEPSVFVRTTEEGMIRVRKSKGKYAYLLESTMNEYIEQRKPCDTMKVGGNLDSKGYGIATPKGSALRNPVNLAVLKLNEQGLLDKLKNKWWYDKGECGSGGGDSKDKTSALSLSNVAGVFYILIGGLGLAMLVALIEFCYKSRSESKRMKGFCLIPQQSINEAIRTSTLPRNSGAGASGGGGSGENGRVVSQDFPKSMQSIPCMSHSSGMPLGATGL
Reported Endpoint: IC50 (µM)
Respond with the bare value in µM.

For N=C(N)NCCC[C@H](N)C(=O)NCCCNCCCNCCCCCNC(=O)[C@H](CC(N)=O)NC(=O)Cc1ccc(O)cc1O , what is its reported IC50?
3.4

Please look at the following compound next.
For CCCC(=O)N[C@@H](Cc1ccc(O)cc1)C(=O)NCCCNCCCCNCCCN [PHILANTHOTOXIN 343] , what is its reported IC50?
2.8

----------
Measured pEC50 accompanies every entry in the list below.
- Target Or System: Glutamate receptor 3 (Homo sapiens)
- Assay Name: Agonist activity at recombinant GluA3 receptor expressed in Xenopus oocytes
- Assay type: functional, cell-based, Oocyte
pEC50 (log units): -log10 of the concentration in mol/L.

For N[C@@H](Cn1cc(F)c(=O)[nH]c1=O)C(=O)O , what is its reported pEC50?
4.68

Another compound to look at: NC(Cc1onc(O)c1Br)C(=O)O (racemic)
3.69

Please look at the following compound next.
For NC(Cc1ccc(=O)[nH][n+]1[O-])C(=O)O (racemic) , what is its reported pEC50?
4.38

----------
- Target Or System: Glutamate receptor 3 (Homo sapiens, UniProt P42263)
- Sequence (P42263 whole entry, canonical isoform): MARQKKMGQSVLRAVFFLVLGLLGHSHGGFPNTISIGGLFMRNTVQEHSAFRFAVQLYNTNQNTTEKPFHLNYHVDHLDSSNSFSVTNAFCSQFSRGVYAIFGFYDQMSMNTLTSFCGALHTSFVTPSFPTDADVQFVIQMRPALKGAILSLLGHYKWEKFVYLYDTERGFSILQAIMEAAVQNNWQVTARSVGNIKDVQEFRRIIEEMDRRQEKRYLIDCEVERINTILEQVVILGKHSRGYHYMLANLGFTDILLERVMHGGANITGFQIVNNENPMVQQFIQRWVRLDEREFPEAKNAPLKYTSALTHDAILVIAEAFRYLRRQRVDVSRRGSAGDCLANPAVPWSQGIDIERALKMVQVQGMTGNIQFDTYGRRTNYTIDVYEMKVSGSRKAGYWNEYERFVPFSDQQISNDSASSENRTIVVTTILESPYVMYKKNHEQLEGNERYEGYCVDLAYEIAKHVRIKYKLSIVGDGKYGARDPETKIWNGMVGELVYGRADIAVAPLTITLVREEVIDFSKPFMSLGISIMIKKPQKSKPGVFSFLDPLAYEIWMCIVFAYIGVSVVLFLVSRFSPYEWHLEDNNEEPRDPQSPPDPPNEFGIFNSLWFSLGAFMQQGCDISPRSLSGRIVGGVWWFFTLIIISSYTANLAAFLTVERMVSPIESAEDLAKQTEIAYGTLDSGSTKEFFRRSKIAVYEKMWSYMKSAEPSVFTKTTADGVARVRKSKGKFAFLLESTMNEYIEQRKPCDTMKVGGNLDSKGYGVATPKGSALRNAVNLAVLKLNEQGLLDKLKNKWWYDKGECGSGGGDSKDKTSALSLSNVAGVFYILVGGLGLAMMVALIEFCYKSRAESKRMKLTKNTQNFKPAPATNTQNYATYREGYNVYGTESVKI
- Assay Name: Inhibition of recombinant GluA3 receptor flip isoform expressed in Xenopus oocytes assessed as inhibition of […] uM kainate-induced current by patch clamp electrophysiological assay
- Type: cell-based, Oocyte
Reported Endpoint: IC50 (nM)
Respond with the bare value in nM.

For N=C(N)NCCC[C@H](N)C(=O)NCCCNCCCNCCCCCNC(=O)[C@H](CC(N)=O)NC(=O)Cc1ccc(O)cc1O , what is its reported IC50?
230

----------
- Target Or System: Glutamate receptor 1 (Homo sapiens, UniProt P42261)
- Sequence (P42261 whole entry, canonical isoform): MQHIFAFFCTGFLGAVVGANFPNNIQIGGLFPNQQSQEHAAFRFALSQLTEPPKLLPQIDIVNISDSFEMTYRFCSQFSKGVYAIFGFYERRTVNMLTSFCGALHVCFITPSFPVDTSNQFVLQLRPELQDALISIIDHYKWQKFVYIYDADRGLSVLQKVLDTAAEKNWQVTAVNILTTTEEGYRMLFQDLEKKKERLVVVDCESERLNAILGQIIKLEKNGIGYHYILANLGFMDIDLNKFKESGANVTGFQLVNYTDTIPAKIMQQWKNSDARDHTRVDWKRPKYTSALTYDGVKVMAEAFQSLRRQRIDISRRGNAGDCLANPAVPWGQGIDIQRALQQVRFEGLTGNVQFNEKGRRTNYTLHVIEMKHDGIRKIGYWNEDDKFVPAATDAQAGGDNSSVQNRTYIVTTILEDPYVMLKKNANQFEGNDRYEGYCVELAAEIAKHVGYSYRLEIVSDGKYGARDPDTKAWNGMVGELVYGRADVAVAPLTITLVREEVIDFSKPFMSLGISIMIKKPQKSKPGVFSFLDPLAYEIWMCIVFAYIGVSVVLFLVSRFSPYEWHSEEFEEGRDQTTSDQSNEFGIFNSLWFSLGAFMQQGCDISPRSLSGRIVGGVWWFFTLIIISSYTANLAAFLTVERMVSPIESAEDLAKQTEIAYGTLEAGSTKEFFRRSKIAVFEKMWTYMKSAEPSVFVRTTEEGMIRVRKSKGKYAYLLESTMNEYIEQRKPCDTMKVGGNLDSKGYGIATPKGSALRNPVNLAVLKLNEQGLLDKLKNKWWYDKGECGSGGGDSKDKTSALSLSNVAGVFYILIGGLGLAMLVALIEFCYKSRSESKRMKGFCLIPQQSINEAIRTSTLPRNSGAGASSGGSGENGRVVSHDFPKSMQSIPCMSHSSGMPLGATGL
- Assay type: cell-based, Oocyte
Reported Endpoint: pIC50
pIC50 (log units): -log10 of the concentration in mol/L.

For NCCCNCCCCNCCC(=O)NCCCCCNC(=O)[C@H](CC(N)=O)NC(=O)Cc1ccc(O)cc1O , what is its reported pIC50?
7.40

----------
- Target Or System: Glutamate receptor 1 (Homo sapiens)
- Assay Name: Agonist activity at recombinant GluA1 receptor expressed in Xenopus oocytes
- Type: functional, cell-based, Oocyte
Measured EC50 accompanies every entry in the list below.
Respond with the bare value in nM.

For NC(Cc1onc(O)c1Br)C(=O)O (racemic) , what is its reported EC50?
14000

***
For NC(Cc1ccc(=O)[nH][n+]1[O-])C(=O)O (racemic) , what is its reported EC50?
260

Another compound to look at: N[C@@H](Cn1cc(F)c(=O)[nH]c1=O)C(=O)O
380

----------
- Target Or System: UniProtKB P42263
- Assay Name: Agonist activity at GluA3 receptor
- Type: functional
Reported Endpoint: EC50 (µM)
Respond with the bare value in µM.

For NC(Cc1onc(O)c1Cl)C(=O)O (racemic) , what is its reported EC50?
2700

----------
- Target Or System: Glutamate receptor 2 (Homo sapiens)
- Sequence (P42262 whole entry, canonical isoform): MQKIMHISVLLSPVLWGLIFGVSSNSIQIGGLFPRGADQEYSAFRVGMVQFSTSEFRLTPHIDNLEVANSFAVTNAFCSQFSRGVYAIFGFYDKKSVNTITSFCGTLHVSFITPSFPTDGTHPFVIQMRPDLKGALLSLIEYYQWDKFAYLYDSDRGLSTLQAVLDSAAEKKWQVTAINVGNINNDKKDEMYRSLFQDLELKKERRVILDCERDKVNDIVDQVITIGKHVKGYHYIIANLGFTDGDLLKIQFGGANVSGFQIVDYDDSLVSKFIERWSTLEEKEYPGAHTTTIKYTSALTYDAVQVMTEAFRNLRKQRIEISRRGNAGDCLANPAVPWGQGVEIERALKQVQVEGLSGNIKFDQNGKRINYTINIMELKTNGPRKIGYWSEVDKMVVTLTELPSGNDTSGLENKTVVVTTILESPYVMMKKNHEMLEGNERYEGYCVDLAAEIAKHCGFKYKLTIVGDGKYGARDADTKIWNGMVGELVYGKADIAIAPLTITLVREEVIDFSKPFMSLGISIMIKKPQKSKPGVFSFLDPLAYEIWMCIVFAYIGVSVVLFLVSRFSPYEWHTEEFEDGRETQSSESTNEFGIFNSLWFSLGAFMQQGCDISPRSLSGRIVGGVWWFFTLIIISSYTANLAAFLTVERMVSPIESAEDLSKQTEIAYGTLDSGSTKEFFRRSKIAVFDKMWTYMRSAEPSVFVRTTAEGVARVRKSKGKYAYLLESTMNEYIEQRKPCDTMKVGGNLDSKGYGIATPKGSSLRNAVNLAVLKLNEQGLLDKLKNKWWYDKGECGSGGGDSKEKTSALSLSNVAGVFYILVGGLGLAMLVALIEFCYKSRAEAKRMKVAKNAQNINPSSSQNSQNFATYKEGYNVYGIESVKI
- Assay Name: Activity at human recombinant GluA2 receptor flip isoform expressed in HEK293 cells assessed as effect on glutamate-induced calcium flux by Fluo-4/AM staining-based fluorescence assay
- Type: cell-based
Measured pEC50 accompanies every entry in the list below.
pEC50 (log units): -log10 of the concentration in mol/L.

For CC(CNS(=O)(=O)C(C)C)C1CCC(c2ccc(C#N)cc2)CC1 (configuration not stated) , what is its reported pEC50?
6.82

Please look at the following molecule next.
For NS(=O)(=O)c1cc2c(cc1Cl)NC(C1CC3C=CC1C3)NS2(=O)=O (configuration not stated) [CYCLOTHIAZIDE] , what is its reported pEC50?
5.65

----------
- Target Or System: Glutamate receptor 1 (Homo sapiens, UniProt P42261)
- Assay Name: Activity at recombinant GluA1 receptor flop isoform expressed in Xenopus oocytes assessed as effect of 100 uM kainate-induced current by patch clamp electrophysiological assay
- Format: cell-based, Oocyte
Reported Endpoint: IC50 (µM)
Respond with the bare value in µM.

So what IC50 did N=C(N)NCCC[C@H](N)C(=O)NCCCNCCCNCCCCCNC(=O)[C@H](CC(N)=O)NC(=O)Cc1ccc(O)cc1O get with Glutamate receptor 1 (Homo sapiens, UniProt P42261)?
3.4

----------
- Target Or System: Glutamate receptor 1 (Homo sapiens)
- Assay Name: Activity at recombinant GluA1 receptor flop isoform expressed in Xenopus oocytes co-expressing gamma2-TARP assessed as effect on 10 uM glutamate-induced current by voltage-clamp electrophysiological assay
- Assay type: cell-based, Oocyte
Reported Endpoint: pEC50
pEC50 (log units): -log10 of the concentration in mol/L.

For NS(=O)(=O)c1cc2c(cc1Cl)NC(C1CC3C=CC1C3)NS2(=O)=O (stereo unspecified) [CYCLOTHIAZIDE] , what is its reported pEC50?
5.00
